- Tested on: M14
- Assay Remarks: NCI tumour cell line growth inhibition, 48 h
Calls of active or inactive are those of the source. Cut-off read from the data, not from the text of the source: active = GI50 up to about 1.1 µM and inactive = higher.
Labels: active, inactive

Molecule: Cc1ccccc1-c1nc2c(N)nc(N)nc2nc1N
Test System: M14
Discrete Label: inactive
//
Molecule: COc1cc([C@@H]2c3cc4c(cc3[C@@H](NC(=O)c3cccc([N+](=O)[O-])c3)C3COC(=O)[C@@H]32)OCO4)cc(OC)c1O (stereo partly drawn)
Test System: M14
Discrete Label: active
//
Molecule: Cc1[nH]c2ncn3ncnc3c2c1Cc1ccccc1
Test System: M14
Discrete Label: inactive

----------
In this section we review reported GI50 values for a set of compounds.
- Test system: RXF 393
- Assay Remarks: NCI tumour cell line growth inhibition, 48 h
Calls of active or inactive are those of the source. Cut-off read from the data, not from the text of the source: active = GI50 up to about 1.1 µM and inactive = higher.

Compound: NC(Cc1ccc2nc3c4ccccc4c(=O)cc-3oc2c1)C(=O)O (configuration not stated)
GI50: > 100 µM (inactive)

Compound: COC(=O)N1CC(=O)C(C(=O)NC23CC4CC(CC(C4)C2)C3)C1 (configuration not stated)
GI50: 82 µM (inactive)

Compound: CN(CCc1ccccn1)c1ccc2c(c1)Cc1ccccc1-2
GI50: 25.1 µM (inactive)

Compound: O=c1[nH]nc(-c2cccc([N+](=O)[O-])c2)[nH]1
GI50: > 100 µM (inactive)

Compound: COc1ccc2cc(-c3nc(N)nc(N4N=C(C)CC4(C)C)n3)c(=N)oc2c1
GI50: 23.4 µM (inactive)

Compound: CC(=O)/C(=C/NC(=S)c1cccnc1)C(=O)Nc1ccccc1C
GI50: > 100 µM (inactive)

Compound: Nc1nc(SCc2ccccc2)c2ncn(Cc3ccccc3)c2n1
GI50: 62.2 µM (inactive)

Compound: CC(C)(C)COS(=O)OCC(C)(C)C
GI50: > 100 µM (inactive)

Compound: COC(=O)C(=O)C(C(=O)C(=O)Nc1ccccc1C(=O)OC)c1nc2ccc(C(=O)c3ccccc3)cc2nc1O (configuration not stated)
GI50: 33.4 µM (inactive)

Compound: O=CC1=CCC2c3[nH]c4ccccc4c3CCN2C1 (configuration not stated)
GI50: 182 µM (inactive)

Compound: CC(C)(C)C(=O)OC(N)/C=C/c1ccccc1 (configuration not stated)
GI50: > 100 µM (inactive)

Compound: Cc1noc(C)c1C1=CCCCc2ccccc21
GI50: 72.8 µM (inactive)

Compound: CCN(CC)CCOC(=O)Cc1cccc2c(=O)cc(-c3ccccc3)oc12
GI50: 41.5 µM (inactive)

Compound: CCCCCC(/C=C/C1CCC(=O)C1)OCOCCOC (configuration not stated)
GI50: 34 µM (inactive)

Compound: CN(C)/C=N/c1ccc2[nH]c3ccccc3c2c1
GI50: 25.8 µM (inactive)

Compound: CCOC(=O)c1nc2ccc(OC)cc2c2c1Cc1ccccc1-2
GI50: 16.2 µM (inactive)

Compound: COCn1c2ccc(OC(C)=O)cc2c2c(=O)oc(C)nc21
GI50: > 100 µM (inactive)

Compound: Cn1ccnc1CCc1ccc(F)cc1F
GI50: > 100 µM (inactive)

Compound: CCOC(=O)C1=C(C)OC(=O)[C@@]2(OC)C=C(Cl)[C@@]12C
GI50: > 100 µM (inactive)

Compound: COC(=O)c1cc2cc3c(c(O)c2c(=O)o1)O[C@@]1(Oc2c(O)c4c(c(O)c2[C@H]1OC1CC(OC)C(O)C(C)O1)C(=O)C=C(OC)C4=O)[C@H](O)C3 (some centres not stated)
GI50: 0.726 µM (active)

Compound: Cc1ccc(NCCN(C)C)c2c(=O)c3cc(O)ccc3sc12
GI50: 1.22 µM (inactive)

Compound: CC1(C)O[C@@H](CP(c2ccc3ccccc3c2)c2ccc3ccccc3c2)[C@H](CP(c2ccc3ccccc3c2)c2ccc3ccccc3c2)O1
GI50: > 100 µM (inactive)

Compound: Cc1nc2ccccc2c(=O)n1NC(=S)Nc1cccc(Cl)c1
GI50: > 100 µM (inactive)

Compound: O=C1c2ccccc2C(=O)N1CCCCNOCCCN1C(=O)c2ccccc2C1=O
GI50: > 100 µM (inactive)

Compound: CCOC(=O)C1(C(=O)OCC)C[C@@H](C)[C@@H](O)C1
GI50: > 100 µM (inactive)

Compound: CC1(C)O[C@@H]2COC(=O)[C@@H]2O1
GI50: > 100 µM (inactive)

Compound: Nc1ccn(C2OC(C(O)CO)C(O)C2O)c(=O)n1 (configuration not stated)
GI50: > 100 µM (inactive)

Compound: NC(CCOCCP(=O)(O)CCOCCC(N)C(=O)O)C(=O)O (configuration not stated)
GI50: > 100 µM (inactive)

Compound: C[Si](C)(C)C#CCO[Si](C)(C)C
GI50: > 100 µM (inactive)

Compound: O=C(CC(C(=O)c1ccco1)c1cccs1)c1cccs1 (configuration not stated)
GI50: 51.3 µM (inactive)

Compound: CSc1nc2c(=O)n(-c3ccccc3)c(=S)n(-c3ccccc3)c2s1
GI50: 34.4 µM (inactive)

Compound: CC1=NN(C(=O)CC(=O)NC(=O)/C=C\c2ccccc2)C(=O)C1/N=N/c1ccc([N+](=O)[O-])cc1 (configuration not stated)
GI50: > 100 µM (inactive)

Compound: CSC1=N/C(=C\c2ccco2)C(=O)N1CN1CCOCC1
GI50: 20.4 µM (inactive)

Compound: CC(C)(C)OC/C=C(\Br)CO
GI50: > 100 µM (inactive)

Compound: CCN1CCCCC(=N\O)/C(=N/O)CCCC1
GI50: > 100 µM (inactive)

Compound: Nc1nc(Cl)cc(NCC2(O)CC2)n1
GI50: > 100 µM (inactive)

Compound: Cn1c2cn[nH]c(=O)c2c2ccc3ccccc3c21
GI50: 19.3 µM (inactive)

Compound: COc1cc(C2c3cc4c(cc3C(=O)C3CCC(=O)N32)OCO4)cc(OC)c1O (configuration not stated)
GI50: > 50 µM (inactive)

Compound: Oc1cc(-c2cccc(Cl)c2)nc2ncccc12
GI50: 0.219 µM (active)

Compound: COc1nc(C)nc2sc3c(c12)CCCC3
GI50: > 100 µM (inactive)

Compound: CN(C)[C@H]1CC[C@H]2[C@@H]3CCC4C[C@@H](NC(=O)NC(Cc5ccccc5)c5nccs5)CC[C@]4(C)[C@H]3CC[C@]12C (some centres not stated)
GI50: 1.54 µM (inactive)

Compound: CC1CC(C)CC(C)C(O)/C(C#N)=C/C=C/CC(C2CCCC2C(=O)O)OC(=O)CC(O)C(C)C1 (configuration not stated)
GI50: < 0.01 µM (active)
